# credit: paper PMC9546217

Tested on: THP‐1 cells
test_description: Cytotoxicity on differentiated host THP-1 macrophages, resazurin assay
Assay type: cell-based, human
test_parameters: differentiated THP-1 macrophages, 72 h; read-out: Cytotoxicity, IC50 ± SD, THP‐1
Description: Duplicate 96‐well plates (for respective anti‐amastigote and cytotoxicity assays) were seeded with 200 μl of a 2.5 × 10^5 cells/ml suspension treated with 25 ng/ml phorbol 12‐myristate 13‐acetate (PMA), followed by 48‐h incubation to promote differentiation into adherent macrophages. Cytotoxicity of the compounds on the differentiated host THP-1 cells were also evaluated. As mentioned, duplicate plates of differentiated THP-1 cells were prepared during the anti-amastigote assay. […]
measurement_label: pIC50
Entry type: numeric. Quantity: pIC50, the -log10 of concentration in molar units.

// pIC50 lookup, key: O=Cc1ccc([N+](=O)[O-])o1 [NFA, 5‐nitro‐2‐furaldehyde, reference compound]
4.09

----------
Listing: pIC50 of selected compounds
Test system: Clone 15 HL‐60 promyelocytic leukemia cells
test_description: Anticancer assay (resazurin)
Assay type: cell-based, human
test_parameters: n = 3; read-out: Anticancer activity, IC50 ± SD, Clone 15 HL‐60
Entry type: numeric. Quantity: pIC50, the -log10 of concentration in molar units.

Illustrative cases are given below, each with its answer.
# compound, measurement_target, pIC50
data = [
    ("CC(C)c1ccc(S(=O)(=O)N/N=C/c2ccc([N+](=O)[O-])o2)cc1", "Clone 15 HL‐60 promyelocytic leukemia cells", 5.11),
    ("O=Cc1ccc([N+](=O)[O-])o1 [NFA, 5‐nitro‐2‐furaldehyde, reference compound]", "Clone 15 HL‐60 promyelocytic leukemia cells", 5.02),
]

Now consider a different compound.
// pIC50 lookup, key: O=[N+]([O-])c1ccc(S(=O)(=O)N/N=C/c2ccc([N+](=O)[O-])o2)cc1
5.03

----------
Listing: pIC50 of selected compounds
System: L. donovani strain 1S amastigotes
test_description: Anti-amastigote assay (intramacrophage, THP-1 host, resazurin)
Assay type: cell-based
test_parameters: Leishmania donovani, THP-1; L. donovani 1S; read-out: 1S IC50 ± SD, Amastigote
Entry type: numeric. Quantity: pIC50, the -log10 of concentration in molar units.

Illustrative cases are given below, each with its answer.
# compound, pIC50
records = [
    ("NC(=O)N/N=C/c1ccc([N+](=O)[O-])o1 [NFZ, nitrofurazone, reference compound]", 5.60),
    ("O=C1OCCN1/N=C/c1ccc([N+](=O)[O-])o1 [FZD, furazolidone, reference compound]", 5.71),
    ("O=[N+]([O-])c1ccc(/C=N/NS(=O)(=O)c2cccc3c2OCCO3)o1 [2l]", 5.20),
    ("O=[N+]([O-])c1ccc(/C=N/NS(=O)(=O)c2ccc(-c3ccccc3)cc2)o1 [2h]", 5.53),
    ("C[C@@H]1[C@H](O)[C@@H](C)/C=C/C=C/C=C/C=C/C=C/C=C/C=C/[C@H](O[C@@H]2O[C@H](C)[C@@H](O)[C@H](N)[C@@H]2O)C[C@@H]2O[C@](O)(C[C@@H](O)C[C@@H](O)[C@H](O)CC[C@@H](O)C[C@@H](O)CC(=O)O[C@H]1C)C[C@H](O)[C@H]2C(=O)O [AMB, Amphotericin B, reference compound]", 7.40),
]

// pIC50 lookup, key: CC(C)(C)c1ccc(S(=O)(=O)N/N=C/c2ccc([N+](=O)[O-])o2)cc1 [2f]
5.20

----------
test_description: Basal cytotoxicity, resazurin assay
test_parameters: African green monkey, Vero cells (kidney epithelial)
measurement_label: IC50 (µM)
Express the result in µM but write the number alone.

Illustrative cases are given below, each with its answer.
# compound, unit_info, IC50
measured = [
    ("O=Cc1ccc([N+](=O)[O-])o1 [NFA, 5‐nitro‐2‐furaldehyde, reference compound]", "µM", 23.2),
    ("CC(C)c1ccc(S(=O)(=O)N/N=C/c2ccc([N+](=O)[O-])o2)cc1 [2d]", "µM", 22.2),
    ("CC(C)(C)c1ccc(S(=O)(=O)N/N=C/c2ccc([N+](=O)[O-])o2)cc1 [2f]", "µM", 29.2),
    ("O=[N+]([O-])c1ccc(/C=N/NS(=O)(=O)c2ccc(-c3ccccc3)cc2)o1 [2h]", "µM", 16.4),
]

Now consider a different compound.
// IC50 lookup, key: O=[N+]([O-])c1ccc(/C=N/NS(=O)(=O)c2cccc3c2OCCO3)o1 [2l]
41.2

----------
test_description: Cytotoxicity on differentiated host THP-1 macrophages, resazurin assay
Assay type: cell-based, human
test_parameters: human, PMA-differentiated THP-1 macrophages, read-out: Cytotoxicity, IC50 ± SD, THP‐1
Listing: IC50 at 72 h of selected compounds

# compound, measurement_label, measured_result
data = [
    ("O=C1CN(/N=C/c2ccc([N+](=O)[O-])o2)C(=O)N1 [NFT, nitrofurantoin, reference compound]", "IC50 at 72 h", "> 100 µM"),
]

// IC50 at 72 h lookup, key: O=[N+]([O-])c1ccc(/C=N/NS(=O)(=O)c2ccc(-c3ccccc3)cc2)o1
50.4 µM

// IC50 at 72 h lookup, key: O=[N+]([O-])c1ccc(/C=N/NS(=O)(=O)c2cccc3c2OCCO3)o1
> 100 µM

----------
Listing: melting point of selected molecules

Illustrative cases are given below, each with its answer.
# molecule, melting point
data = [
    ("NNS(=O)(=O)c1ccc(-c2ccccc2)cc1 [1h, (1,1'-Biphenyl)-4-sulfonohydrazide]", "180 to 183 °C"),
    ("CC(=O)Nc1ccc(S(=O)(=O)NN)cc1 [1 g]", "175 to 178 °C"),
    ("NNS(=O)(=O)C1(Cl)C=CC(c2ccccc2)=CC1 (stereo not drawn) [1j]", "150 to 153 °C"),
    ("Cc1cc(C)c(S(=O)(=O)NN)c(C)c1 [1e, 2,4,6-Trimethylbenzenesulfonohydrazide]", "110 to 113 °C"),
    ("NNS(=O)(=O)c1ccc(I)cc1 [1a, 4-Iodobenzenesulfonohydrazide]", "160 to 162 °C"),
]

Now consider a different molecule.
// melting point lookup, key: COC1(S(=O)(=O)NN)C=CC(c2ccccc2)=CC1 (stereo not drawn) [1k]
173 to 175 °C
